Assay: Hydrolysis rate of betaine ester, pH-stat titrator at constant pH and temperature
Type: physicochemical
Details: buffer, pH 8.5, 40°C, pH 8.5, 1.25 10^-2 mol/l, alone; read-out: t1/2 pH 8.5
propertyName: half-life at 0.0125 mol/l

Problem: Looking for the measured half-life at 0.0125 mol/l of CCCCCCCCCCCC[N+](C)(C)CC(=O)OC/C=C(\C)CCC=C(C)C.[Br-] , can you help?
Solution: < 2 min

###

Assay: Hydrolysis rate of betaine ester, pH-stat titrator at constant pH and temperature
Assay type: physicochemical
Conditions: buffer, pH 10.5, 40°C, pH 10.5, 10^-3 mol/l, alone; read-out: t1/2
propertyName: half-life

Problem: Looking for the measured half-life of CCCCCCCCCCCC[N+](C)(C)CC(=O)OC/C=C(\C)CCC=C(C)C.[Br-] , can you help?
Solution: < 10 s
